Exercise: for every item that follows, state its recorded Ki.
- system_name: rat histamine H3 receptors (Rattus norvegicus)
Give your result in nM as a bare value.

Problem: Need Ki, item CN(C[C@H]1C[C@H](c2ccc(CN3CCCC3)cc2)C1)C1CCCCC1
Result: 1.44

Problem: Need Ki, item CN(Cc1ccccc1)C[C@H]1C[C@H](c2ccc(CN3CCCC3)cc2)C1
Result: 2.82

Problem: Need Ki, item COC[C@@H]1CCCN1C[C@H]1C[C@H](c2ccc(CN3CCCC3)cc2)C1
Result: 8.91

Problem: Need Ki, item c1cc(C2CCNC2)nc(OC[C@H]2C[C@@H](c3ccc(CN4CCCC4)cc3)C2)n1 (relative stereo)
Result: 7.28

###

- system_name: rat histamine H3 receptors (Rattus norvegicus, UniProt Q9QYN8)
- Sequence (Q9QYN8 whole entry): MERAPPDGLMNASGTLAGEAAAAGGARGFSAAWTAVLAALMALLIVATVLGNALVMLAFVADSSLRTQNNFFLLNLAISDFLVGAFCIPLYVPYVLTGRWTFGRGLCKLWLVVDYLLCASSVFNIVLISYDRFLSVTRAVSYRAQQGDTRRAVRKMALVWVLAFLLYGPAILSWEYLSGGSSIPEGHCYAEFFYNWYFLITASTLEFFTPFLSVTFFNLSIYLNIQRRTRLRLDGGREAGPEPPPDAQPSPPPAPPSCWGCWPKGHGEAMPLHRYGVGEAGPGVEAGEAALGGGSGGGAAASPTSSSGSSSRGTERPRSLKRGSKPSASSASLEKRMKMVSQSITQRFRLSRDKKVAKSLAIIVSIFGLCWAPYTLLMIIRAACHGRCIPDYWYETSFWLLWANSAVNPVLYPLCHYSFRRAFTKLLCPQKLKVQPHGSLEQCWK
Binary label based on Ki with cut-off 5 nM: below gives 1.0, not below gives 0.0.

Problem: Strictly below 5 nM in Ki? Cc1ccc(S(=O)(=O)OC[C@H]2C[C@@H](c3ccc(CN4CCCC4)cc3)C2)cc1
Result: 0.0

Problem: Strictly below 5 nM in Ki? Fc1cnc(N2CCN(C[C@H]3C[C@@H](c4ccc(CN5CCCC5)cc4)C3)CC2)nc1
Result: 1.0

Problem: Strictly below 5 nM in Ki? Cc1cc(C2CCNC2)nc(OC[C@H]2C[C@@H](c3ccc(CN4CCCC4)cc3)C2)n1 (relative stereo)
Result: 1.0

Problem: Strictly below 5 nM in Ki? Fc1cnc(N2CCN(C[C@H]3C[C@H](c4ccc(CN5CCCC5)cc4)C3)CC2)nc1
Result: 1.0

Problem: Strictly below 5 nM in Ki? Cc1ccc(COCC2CC(c3ccc(CN4CCCC4)cc3)C2)cc1 (centres unmarked)
Result: 0.0

Problem: Strictly below 5 nM in Ki? Cc1cnc(C)c(OCC2CC(c3ccc(CN4CCCC4)cc3)C2)n1 (centres unmarked)
Result: 0.0

Problem: Strictly below 5 nM in Ki? OC1(c2ccc(CN3CCCC3)cc2)CC(COCc2ccccc2)C1 (centres unmarked)
Result: 0.0

Problem: Strictly below 5 nM in Ki? Cc1cnc(OC[C@H]2C[C@@H](c3ccc(CN4CCCC4)cc3)C2)nc1C1CCCNC1 (relative stereo)
Result: 0.0

Problem: Strictly below 5 nM in Ki? C[C@@H]1CN(C[C@H]2C[C@@H](c3ccc(CN4CCCC4)cc3)C2)C[C@H](C)O1
Result: 0.0

Problem: Strictly below 5 nM in Ki? CC1CCCCN1C[C@H]1C[C@H](c2ccc(CN3CCCC3)cc2)C1 (relative stereo)
Result: 1.0

Problem: Strictly below 5 nM in Ki? c1ccc2c(c1)CN(C[C@H]1C[C@H](c3ccc(CN4CCCC4)cc3)C1)C2
Result: 1.0

Problem: Strictly below 5 nM in Ki? c1cc([C@H]2C[C@H](CN3CCCCC3)C2)ccc1CN1CCCC1
Result: 1.0

Problem: Strictly below 5 nM in Ki? CC1CCCN1C[C@H]1C[C@H](c2ccc(CN3CCCC3)cc2)C1 (relative stereo)
Result: 1.0

Problem: Strictly below 5 nM in Ki? c1cc([C@H]2C[C@@H](CN3CCNCC3)C2)ccc1CN1CCCC1
Result: 1.0

Problem: Strictly below 5 nM in Ki? CC1CC(C)CN(C[C@H]2C[C@H](c3ccc(CN4CCCC4)cc3)C2)C1 (some centres unmarked)
Result: 1.0

Problem: Strictly below 5 nM in Ki? CN(Cc1cccnc1)C[C@H]1C[C@H](c2ccc(CN3CCCC3)cc2)C1
Result: 1.0

Problem: Strictly below 5 nM in Ki? Cc1ccc(S(=O)(=O)OCC2CC(c3ccc(CN4CCCC4)cc3)C2)cc1 (centres unmarked)
Result: 0.0
